- test-system: Recombinant human 17β-HSD13 (Homo sapiens, UniProt Q7Z5P4)
- Sequence (Q7Z5P4 20-300): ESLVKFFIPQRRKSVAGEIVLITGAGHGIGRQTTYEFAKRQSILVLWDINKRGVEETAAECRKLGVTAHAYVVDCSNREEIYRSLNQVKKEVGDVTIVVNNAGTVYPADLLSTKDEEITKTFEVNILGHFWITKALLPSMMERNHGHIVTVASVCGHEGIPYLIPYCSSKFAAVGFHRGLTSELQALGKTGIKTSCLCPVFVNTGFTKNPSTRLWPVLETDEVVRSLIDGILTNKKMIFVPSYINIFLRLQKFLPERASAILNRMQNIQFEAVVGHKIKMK
- assay-procedure: 17β-HSD13 rapid-fire mass spectrometry assay (RF/MS assay)
- protocol-conditions: inhibition of 17β-HSD13, RF/MS assay; HSD17B13 80 nM, LTB4 10 μM, NAD+ 0.5 mM, RT 3 h
Reported IC50 values for a set of compounds

# smiles-input, observation-type, observed-value
records = [
    ("COc1ccc(-c2nc3sc4c(NC(C)=O)cccc4c3c(=O)n2Cc2cnco2)c(C2CC2)c1", "IC50", "> 10000 nM"),
    ("COc1cc(F)c(-c2nc3sc4c(O)c(Cl)ccc4c3c(=O)n2Cc2cnco2)c(C2CC2)c1", "IC50", "< 100 nM"),
    ("CCCc1ccc2c(sc3nc(-c4ccc(OC)cc4C4CC4)n(Cc4cnco4)c(=O)c32)c1O", "IC50", "1000 to 10000 nM"),
    ("COc1ccc(-c2nc3sc4c(OC)cccc4c3c(=O)n2Cc2cnco2)c(C2CC2)c1", "IC50", "> 10000 nM"),
    ("CCOc1ccc(-c2nc3sc4c(O)c(Cl)ccc4c3c(=O)n2Cc2cnco2)c(C2CC2)c1", "IC50", "< 100 nM"),
]

Endpoint output: IC50 of O=c1c2c(nc(-c3ccc(F)cc3C3CC3)n1Cc1ccno1)sc1c(O)c(Cl)ccc12 . Value? < 100 nM

Please report the recorded IC50 for Cc1cc(Cn2c(-c3ccc(F)cc3C3CC3)nc3sc4c(O)c(Cl)ccc4c3c2=O)on1 . < 100 nM

What value of IC50 has been reported for the following compound? O=c1c2c(nc(-c3cc(F)c(F)cc3C3CC3)n1Cc1cc(C(F)(F)F)on1)sc1c(O)c(Cl)ccc12 < 100 nM

Consider the compound shown here: COc1ccc(C2CC2)c(-c2nc3sc4c(O)c(Cl)ccc4c3c(=O)n2Cc2cnco2)c1 What is its recorded IC50? < 100 nM

// IC50 lookup, key: COc1ccc(-c2nc3sc4c(O)c(Cl)cc(Cl)c4c3c(=O)n2Cc2cnco2)c(C2CC2)c1 100 to 1000 nM

Given O=c1c2c(nc(-c3cc(C(F)(F)F)c(Cl)cc3C3CC3)n1Cc1cnco1)sc1c(O)c(Cl)ccc12 , state its recorded IC50. < 100 nM

Requested read-out: IC50. Entry: O=c1c2c(nc(-c3ccc(Cl)cc3C3CC3)n1Cc1cnco1)sc1c(O)c(Cl)ccc12 < 100 nM

What does the record list as IC50 for COc1ccc(-c2nc3sc4c(O)c(Cl)ccc4c3c(=O)n2Cc2cnco2)c(Br)c1 ? < 100 nM

Consider the compound CS(=O)(=O)c1ccc(-c2nc3sc4c(O)c(Cl)ccc4c3c(=O)n2Cc2cnc(C(F)(F)F)nc2)c(C2CC2)c1 and give its measured IC50. < 100 nM

Could you tell me which IC50 is on file for COc1cc(-c2nc3sc4c(O)c(Cl)ccc4c3c(=O)n2Cc2cnco2)c(C2CC2)cc1F ? < 100 nM

Record request: IC50 value, item COc1cc(C2CC2)c(-c2nc3sc4c(O)c(Cl)ccc4c3c(=O)n2Cc2cnco2)cc1C(F)(F)F 100 to 1000 nM

For COc1ccc(-c2nc3sc4c(O)c(C)ccc4c3c(=O)n2Cc2cnco2)c(C2CC2)c1 , what is its reported IC50? < 100 nM

Can you look up the measured IC50 of O=c1c2c(nc(-c3ncc(C(F)(F)F)cc3C3CC3)n1Cc1cc(C(F)(F)F)no1)sc1c(O)c(Cl)ccc12 for me? < 100 nM

Tell me the measured IC50 of COc1ccc(-c2nc3sc4c(O)c(Cl)ccc4c3c(=O)n2Cc2ocnc2F)c(C2CC2)c1 , please. < 100 nM

// returns reported IC50 for input O=c1c2c(nc(-c3ncc(F)cc3C3CC3)n1Cc1cc(C(F)(F)F)no1)sc1c(O)c(Cl)ccc12 < 100 nM

Which measured IC50 value corresponds to O=c1c2c(nc(-c3cc(Cl)c(F)cc3C3CC3)n1Cc1cnco1)sc1c(O)c(Cl)ccc12 ? < 100 nM

Endpoint output: IC50 of O=c1c2c(nc(-c3cc(F)c(C(F)(F)F)cc3C3CC3)n1Cc1cnco1)sc1c(O)c(Cl)ccc12 . Value? < 100 nM

Name the reported IC50 value associated with the compound COc1ccc(-c2nc3sc4c(O)c(Br)ccc4c3c(=O)n2Cc2cnco2)c(C2CC2)c1 < 100 nM

Quick one: IC50 for COc1ccc(-c2nc3sc4c(ccc5[nH]c(=O)oc54)c3c(=O)n2Cc2cnco2)c(C2CC2)c1 ? > 10000 nM

* * *

- test-system: human HSD17β13 (stable HEK293T cell line overexpressing human HSD17β13) (Homo sapiens, UniProt Q7Z5P4)
- Sequence (Q7Z5P4 20-300): as above
- assay-procedure: HSD17β13 inhibitor cell-based screening assay (conversion of estradiol-d2 to estrone-d2 by RF-MS)
- protocol-conditions: conversion of estradiol-d2 to estrone-d2 after 24 hours
- Description: The purpose of this cell-based assay is to determine the cellular efficacy (IC50) of HSD17β13 inhibitors in a stable HEK293 T cell line overexpressing human HSD17β13. […] Cytotoxicity was also assessed via luminescent signal generated by the ATPlite viability assay reagent. […] Supernatant is collected and immediately frozen after 24 hours of incubation, and conversion of estradiol-d2 to estrone-d2 is measured at Pure Honey by RF-MS. […] Afterwards, cells were immediately counted and seeded onto the plate. […]
observation-type: IC50

IC50 lookup needed for O=c1c2c(nc(-c3ncc(F)cc3C3CC3)n1Cc1cnco1)sc1c(O)c(Cl)ccc12 , thanks. < 0.1 µM

Request the reported IC50 associated with COc1ccc(-c2nc3sc4c(ccc5[nH]c(=O)[nH]c54)c3c(=O)n2Cc2cnco2)c(C2CC2)c1 1 to 100 µM

* * *

- test-system: human HSD17β13 (stable HEK293T cell line overexpressing human HSD17β13) (Homo sapiens, UniProt Q7Z5P4)
- assay-procedure: HSD17β13 inhibitor cell-based screening assay (conversion of estradiol-d2 to estrone-d2 by RF-MS)
- protocol-conditions: conversion of estradiol-d2 to estrone-d2 after 24 hours
# maps each entry to its IC50

Example cases with answers are listed next.
# compound, observed-value
data = [
    ("O=c1c2c(nc(-c3cc(F)c(F)cc3C3CC3)n1Cc1cnc(C(F)(F)F)nc1)sc1c(O)c(F)ccc12 [Example 183]", "< 100 nM"),
    ("COc1ccc(-c2nc3sc4c(O)c(F)ccc4c3c(=O)n2Cc2cnco2)c(C2CC2)c1 [Example 56]", "< 100 nM"),
    ("C=CCc1ccc2c(sc3nc(-c4ccc(OC)cc4C4CC4)n(Cc4cnco4)c(=O)c32)c1O [Example 21]", "1000 to 100000 nM"),
    ("COc1ccc(-c2nc3sc4c(B(O)O)cccc4c3c(=O)n2Cc2cnco2)c(C2CC2)c1 [Example 11]", "500 to 1000 nM"),
    ("CS(=O)(=O)c1ccc(-c2nc3sc4c(O)c(Cl)ccc4c3c(=O)n2Cc2cccnc2)c(C2CC2)c1 [Example 166]", "< 100 nM"),
]

# input compound: COCCOc1ccc(-c2nc3sc4c(O)c(Cl)ccc4c3c(=O)n2Cc2cnco2)c(C2CC2)c1 [Example 74] ; wanted: its IC50 < 100 nM

Reported IC50 for CCc1ncc(Cn2c(-c3ccc(OC)cc3C3CC3)nc3sc4c(O)c(Cl)ccc4c3c2=O)s1 [Example 41] : what is it? < 100 nM

* * *

- test-system: UniProt Q7Z5P4
- assay-procedure: HSD17β13 inhibitor cell-based screening assay (conversion of estradiol-d2 to estrone-d2 by RF-MS)
- protocol-conditions: conversion of estradiol-d2 to estrone-d2 after 24 hours
pIC50: −log10 of the molar value.
Items are presented alongside their recorded pIC50.

// known answers, use as guide
# smiles-input, test-system, pIC50
measured = [
    ("CCn1c(=O)c(C)cn(CCn2c(-c3ccc(OC)cc3C3CC3)nc3sc4c(O)c(Cl)ccc4c3c2=O)c1=O", "UniProt Q7Z5P4", "6.00 to 6.30"),
    ("COc1ccc(-c2nc3sc4c(O)c(Cl)ccc4c3c(=O)n2Cc2cc(C(F)(F)F)no2)c(C2CC2)c1", "UniProt Q7Z5P4", "> 7.00"),
]

Let us move to another entry and its pIC50.
pIC50 for COc1ccc(-c2nc3sc4c(OC)cccc4c3c(=O)n2Cc2cnco2)c(C2CC2)c1 ? 4.00 to 6.00

* * *

// values below are reported pIC50
- test-system: human HSD17β13 (stable HEK293T cell line overexpressing human HSD17β13) (Homo sapiens)
- assay-procedure: HSD17β13 inhibitor cell-based screening assay (conversion of estradiol-d2 to estrone-d2 by RF-MS)
- protocol-conditions: conversion of estradiol-d2 to estrone-d2 after 24 hours
pIC50: −log10 of the molar value.

# smiles-input, pIC50
data = [
    ("COc1ccc(-c2nc3sc4c(C(N)=O)cccc4c3c(=O)n2Cc2cnco2)c(C2CC2)c1", "4.00 to 6.00"),
    ("O=c1c2c(nc(-c3cc(F)c(F)cc3C3CC3)n1Cc1cnc(C(F)(F)F)nc1)sc1c(O)ccc(F)c12", "> 7.00"),
    ("O=c1c2c(nc(-c3cc(F)c(F)cc3C3CC3)n1Cc1cnn(C(F)(F)F)c1)sc1c(O)c(Cl)ccc12", "> 7.00"),
]

Pending molecule:
State the recorded pIC50 for this entry: O=c1c2c(nc(-c3ccc(C(F)(F)F)nc3C3CC3)n1Cc1ccc(C(F)(F)F)nc1)sc1c(O)c(Cl)ccc12 > 7.00
